Test system: Pseudomonas aeruginosa
method: MIC against Gram-negative bacteria: Pseudomonas aeruginosa
Assay type: cell-based
assay_context: P. aeruginosa; 10 h cultivation at 37° C.; 5×10^5 CFU/mL
readout_kind: MIC (μg/mL) P. aeruginosa
Could you give the number and then its unit, please?

Reference set (5 entries):
PRT247 (GAAICQPPCRNGGSCVQPGRCRCPAGWRGDTCQ; listed as Homo sapiens); 12.5 µg/mL
PRT751 (LCATGDHDCEQVCISSPGSYTCACHEGFTLNSDGKTCN; listed as Homo sapiens); 50 µg/mL
PRT833 (CEANNGGCSHGCSHTSAGPLCTCPRGYELDTDQRTC; listed as Homo sapiens); 12.5 µg/mL
PRT253 (DYCSQNTCLNGGKCSWTHGAGYVCKCPPQFSGKHCE; listed as Homo sapiens); 12.5 µg/mL
PRT753 (RKDVCKSTHHGCEHICVNNGNSYICKCSEGFVLAEDGRRCK; listed as Homo sapiens); 12.5 µg/mL

Task: Need MIC (μg/mL) P. aeruginosa of PRT159 (EYDACQRKPCQNNASCIDANEKQDGSNFTCVCLPGYTGELCQ; listed as Homo sapiens) , thanks.
Output: 25 µg/mL

Task: What do you have for PRT148 (LTDICSVSNGGCHPDASCSSTLGSLPLCTCLPGYTGN; listed as Homo sapiens) ?
Output: 25 µg/mL
